# Tested target: human PKCθ full length enzyme (Homo sapiens, UniProt Q04759)
# Construct: human PKCθ full length enzyme (Panvera Cat# P2996); purchased Panvera P2996
# Sequence (Q04759 whole entry): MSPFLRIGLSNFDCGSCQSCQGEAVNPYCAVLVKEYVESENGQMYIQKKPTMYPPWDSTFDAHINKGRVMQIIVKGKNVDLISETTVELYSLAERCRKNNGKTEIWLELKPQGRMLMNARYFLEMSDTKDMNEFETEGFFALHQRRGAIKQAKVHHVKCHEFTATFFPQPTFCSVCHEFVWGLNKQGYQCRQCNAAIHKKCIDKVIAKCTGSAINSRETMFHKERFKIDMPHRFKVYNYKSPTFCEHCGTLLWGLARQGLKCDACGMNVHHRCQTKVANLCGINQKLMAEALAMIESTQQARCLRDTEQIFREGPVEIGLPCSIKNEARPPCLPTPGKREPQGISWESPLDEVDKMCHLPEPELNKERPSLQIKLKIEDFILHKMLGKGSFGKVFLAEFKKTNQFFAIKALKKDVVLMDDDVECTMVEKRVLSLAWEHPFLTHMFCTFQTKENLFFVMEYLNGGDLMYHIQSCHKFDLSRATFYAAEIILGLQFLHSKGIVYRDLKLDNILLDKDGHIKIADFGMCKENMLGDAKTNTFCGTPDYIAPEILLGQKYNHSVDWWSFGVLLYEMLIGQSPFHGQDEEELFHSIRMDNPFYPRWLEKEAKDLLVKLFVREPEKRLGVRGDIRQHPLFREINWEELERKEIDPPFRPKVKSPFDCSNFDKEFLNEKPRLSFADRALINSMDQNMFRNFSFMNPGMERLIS
# Assay remarks: PKCθ IMAP assay (fluorescence polarization)
# Format: biochemical
# Description: The reaction buffer was prepared by diluting the 5× stock reaction buffer and adding DTT to obtain a concentration of 3.0 mM. […] The final concentration of compound was 2× and 10% DMSO. DMSO was added to the rest of the master mix to increase the concentration to 10%. 10 μl of the master mix containing 10% DMSO was added to the rest of the wells on the plate except the 2nd column. […] FP was measured using Envision2100 (PerkinElmer Life Sciences). […]
Measure: IC50 (nM)
Dear colleague, please return just the value in nM, with no unit written.

Some entries whose results are on file:
>>> print(df.to_string())
                                   compound  measure  data_value
0  Cc1c(Nc2c(C#N)cncc2-c2ccc(OCCNCCN(C)C)cc2)ccc2[nH]ccc12 [Compound 417]     IC50           6
1  Cc1c(Nc2c(C#N)cncc2-c2cc3cc(CN4CCN(C)CC4)ccc3s2)ccc2[nH]ccc12 [Compound 521]     IC50           1
2  Cc1c(Nc2c(C#N)cncc2-c2cc3cc(CN4CC[N+](C)([O-])CC4)ccc3o2)ccc2[nH]ccc12 [Compound 554]     IC50           6

Here is another compound to look at.
Measured IC50, COc1ccc(-c2cncc(C#N)c2-c2ccc3[nH]ccc3c2)cc1OC [Compound 221] : 1750

---

# Tested target: purified recombinant full length PKC theta (Panvera, P2996) (Homo sapiens, UniProt Q04759)
# Construct: purified recombinant full length PKC theta (Panvera, P2996)
# Assay remarks: Radioactive kinase assay for inhibition of full length (FL) PKCθ
# Condition set: average value
Measure: pIC50
Expect pIC50 as a plain number equal to -log10 of the molar concentration.

Some entries whose results are on file:
>>> print(df.to_string())
                                   molecule  data_value
0  COCCOc1ccc(-c2cncc(C#N)c2Nc2ccc3[nH]ccc3c2)cc1OC [Compound 160]        6.85
1  N#Cc1cncc(-c2cccc(OCCN3CCCC3)c2)c1Nc1ccc2cc[nH]c2c1 [Compound 172]        5.59
2  N#Cc1cncc(-c2cccc(OCCN3CCOCC3)c2)c1Nc1ccc2[nH]ccc2c1 [Compound 175]        7.00
3  N#Cc1ccc(-c2cccc(-c3cncc(C#N)c3Nc3ccc4[nH]ccc4c3)c2)cc1 [Compound 118]        7.05
4  N#Cc1cncc(-c2cccc(OCCN3CCOCC3)c2)c1Nc1cccc2[nH]ccc12 [Compound 170]        7.70

Measured pIC50, COCCOc1cc(-c2cncc(C#N)c2Nc2cccc3[nH]ccc23)ccc1OC [Compound 153] : 7.40

Measured pIC50, COc1ccc(-c2cncc(C#N)c2Nc2ccc3[nH]ccc3c2)cc1OC [Compound 101] : 7.08

Measured pIC50, CC(=O)Nc1cccc(-c2cncc(C#N)c2Nc2ccc3[nH]ccc3c2)c1 [Compound 152] : 5.71

Measured pIC50, N#Cc1cncc(-c2cccc(-c3ccccc3Cl)c2)c1Nc1ccc2[nH]ccc2c1 [Compound 129] : 7.22

---

Listing of entries alongside the reported IC50.
# Tested target: purified recombinant full length PKC theta (Panvera, P2996) (Homo sapiens)
# Construct: purified recombinant full length PKC theta (Panvera, P2996)
# Assay remarks: Radioactive kinase assay for inhibition of full length (FL) PKCθ
# Condition set: average value
Dear colleague, please return just the value in µM, with no unit written.

Some entries whose results are on file:
In [3]: df
Out[3]:
                            compound_string                             tested_target  measure  quantity_unit  data_value
0  N#Cc1cncc(-c2cccc(OCCN3CCCC3)c2)c1Nc1cccc2[nH]ccc12  purified recombinant full length PKC theta (Panvera, P2996) (Homo sapiens)     IC50             µM        0.03
1  N#Cc1cncc(-c2cccc(OCCCl)c2)c1Nc1ccc2[nH]ccc2c1  purified recombinant full length PKC theta (Panvera, P2996) (Homo sapiens)     IC50             µM        0.11
2  N#Cc1cncc(-c2cccc(OCCN3CCCC3)c2)c1Nc1ccc2[nH]ccc2c1  purified recombinant full length PKC theta (Panvera, P2996) (Homo sapiens)     IC50             µM        0.07
3  COCCOc1ccc(-c2cncc(C#N)c2Nc2ccc3cc[nH]c3c2)cc1OC  purified recombinant full length PKC theta (Panvera, P2996) (Homo sapiens)     IC50             µM         5.5
4  N#Cc1cncc(-c2cccc(-c3ncccn3)c2)c1Nc1ccc2[nH]ccc2c1  purified recombinant full length PKC theta (Panvera, P2996) (Homo sapiens)     IC50             µM         0.1
5  N#Cc1cncc(-c2cccc(-c3cccc(Cl)c3)c2)c1Nc1ccc2[nH]ccc2c1  purified recombinant full length PKC theta (Panvera, P2996) (Homo sapiens)     IC50             µM        0.08
6  COc1ccc(-c2cncc(C#N)c2Nc2ccc3cc[nH]c3c2)cc1OC  purified recombinant full length PKC theta (Panvera, P2996) (Homo sapiens)     IC50             µM        2.25

Here is another molecule to look at.
Measured IC50, "N#Cc1cncc(-c2cccc(-c3ccc(C(=O)NCc4ccccc4)cc3)c2)c1Nc1ccc2[nH]ccc2c1" : 0.19

---

# Tested target: human PKCθ full length enzyme (Homo sapiens, UniProt Q04759)
# Construct: human PKCθ full length enzyme (Panvera Cat# P2996); purchased Panvera P2996
# Assay remarks: PKCθ IMAP assay (fluorescence polarization)
# Assay type: biochemical
# Condition set: human PKCθ full length enzyme, IMAP; average value; read-out: IC50 PKCθ IMAP
Measure: IC50 (nM)
Dear colleague, please return just the value in nM, with no unit written.

Some entries whose results are on file:
>>> print(df.to_string())
                            compound_string  measure  quantity_unit  data_value
0  Cc1c(Nc2c(C#N)cncc2-c2cnc3ccccc3c2)ccc2[nH]ccc12     IC50             nM         191
1  CN(C)CCCOc1ccc(-c2cncc(C#N)c2Nc2cccc3[nH]ccc23)cn1     IC50             nM          40

Measured IC50, "N#Cc1cncc(-c2cc3cc(CN4CCOCC4)ccc3s2)c1Nc1cccc2[nH]ccc12" : 10

Measured IC50, "N#Cc1cccc(-c2cccc(-c3cncc(C#N)c3Nc3ccc4[nH]ccc4c3)c2)c1" : 110

Measured IC50, "N#Cc1cncc(-c2cc3cc(C4OCCCO4)ccc3o2)c1Nc1cccc2[nH]ccc12" : 40

Measured IC50, "Cc1c(Nc2c(C#N)cncc2-c2ccc(OCCCl)cc2)ccc2[nH]ccc12" : 4

Measured IC50, "Cc1c(Nc2c(C#N)cncc2-c2cc3cc(C=O)ccc3o2)ccc2[nH]ccc12" : 1

Measured IC50, "CCN(CC)Cc1ccc(-c2cncc(C#N)c2Nc2ccc3[nH]ccc3c2C)o1" : 42

Measured IC50, "Cc1c(Nc2c(C#N)cncc2-c2ccc(CN3CCC(N4CCOCC4)CC3)o2)ccc2[nH]ccc12" : 9

Measured IC50, "N#Cc1cccc(-c2cncc(C#N)c2Nc2cccc3[nH]ccc23)c1" : 20

---

# Tested target: human PKCθ full length enzyme (Homo sapiens, UniProt Q04759)
# Construct: human PKCθ full length enzyme (Panvera Cat# P2996); purchased Panvera P2996
# Assay remarks: PKCθ IMAP assay (fluorescence polarization)
# Type: biochemical
# Condition set: human PKCθ full length enzyme, IMAP; average value; read-out: IC50 PKCθ IMAP
pIC50: −log10 of the molar value.
Class boundaries, taken from values of pIC50, are as follows: LOW: < 7; MID: ≥ 7 and < 8; HIGH: ≥ 8

Sample answers from the record:
>>> print(df.to_string())
                                   molecule  assigned_class
0  Cc1c(Nc2c(C#N)cncc2-c2cc3cc(CNCc4ccncc4)ccc3o2)ccc2[nH]ccc12            HIGH
1  N#Cc1cncc(-c2cccc(-c3ccc(C(=O)NCCN4CCCC4)cc3)c2)c1Nc1ccc2[nH]ccc2c1             LOW

Problem: Assign a bin to "CNC(=O)Nc1ccc(-c2cncc(C#N)c2Nc2ccc3[nH]ccc3c2C)cc1"
Result: MID

Problem: Assign a bin to "COc1ccc(-c2cncc(C#N)c2Nc2ccc3[nH]ccc3c2)cc1OCCNC1CCCC1"
Result: LOW

Problem: Assign a bin to "N#Cc1cncc(-c2ccc(OCc3ccccc3)cc2)c1Nc1ccc2[nH]ccc2c1"
Result: LOW

Problem: Assign a bin to "N#Cc1cncc(-c2cc3cc(CO)ccc3s2)c1Nc1cccc2[nH]ccc12"
Result: HIGH

Problem: Assign a bin to "COc1ccc(-c2cncc(C#N)c2Nc2ccc3[nH]ccc3c2)cc1-c1cccs1"
Result: MID

Problem: Assign a bin to "Cc1c(Nc2c(C#N)cncc2-c2cccc(Cl)c2Cl)ccc2[nH]ccc12"
Result: MID

Problem: Assign a bin to "CCC(CC)NC(=O)c1ccc(-c2cccc(-c3cncc(C#N)c3Nc3ccc4[nH]ccc4c3)c2)cc1"
Result: LOW

Problem: Assign a bin to Cc1c(Nc2c(C#N)cncc2-c2cc3cc(CNCC(O)CO)ccc3o2)ccc2[nH]ccc12 (centres unmarked)
Result: HIGH

Problem: Assign a bin to "Cc1c(Nc2c(C#N)cncc2-c2ccc(OCCCN3CCN(C)CC3)cc2)ccc2[nH]ccc12"
Result: MID

Problem: Assign a bin to "Cc1c(Nc2c(C#N)cncc2-c2ccc(NC(=O)OCc3ccccc3)c(F)c2)ccc2[nH]ccc12"
Result: MID

Problem: Assign a bin to "Cc1c(Nc2c(C#N)cncc2-c2cc3cc(CN4CCCCC4)ccc3o2)ccc2[nH]ccc12"
Result: HIGH

Problem: Assign a bin to "N#Cc1cncc(-c2cccc(-c3ccc(C(=O)NCCO)cc3)c2)c1Nc1cccc2[nH]ccc12"
Result: MID

Problem: Assign a bin to "Cc1c(Nc2c(C#N)cncc2-c2cncnc2)ccc2[nH]ccc12"
Result: LOW
